- System tested: Dual specificity protein kinase CLK1 (Homo sapiens, UniProt P49759)
- Sequence (P49759 whole entry): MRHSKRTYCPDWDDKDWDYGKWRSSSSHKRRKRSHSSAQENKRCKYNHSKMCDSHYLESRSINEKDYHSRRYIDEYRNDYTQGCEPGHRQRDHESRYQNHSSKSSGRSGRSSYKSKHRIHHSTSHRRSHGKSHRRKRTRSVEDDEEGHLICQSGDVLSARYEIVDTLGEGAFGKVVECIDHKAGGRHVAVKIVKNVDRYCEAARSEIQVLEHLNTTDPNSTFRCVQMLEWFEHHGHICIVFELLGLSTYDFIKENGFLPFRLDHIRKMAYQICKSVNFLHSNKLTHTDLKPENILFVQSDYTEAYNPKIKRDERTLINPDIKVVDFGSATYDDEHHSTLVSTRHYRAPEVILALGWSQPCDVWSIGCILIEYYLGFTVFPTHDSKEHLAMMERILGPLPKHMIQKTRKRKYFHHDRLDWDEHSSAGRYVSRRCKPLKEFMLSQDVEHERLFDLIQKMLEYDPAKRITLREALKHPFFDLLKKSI
Mark each entry fulfilled if its IC50 sits below 50 nM, and not fulfilled for all others.

Take a look at these entries with their results.
[[record]]
molecule = "c1cc(-c2ccc3[nH]ncc3c2)ccn1"
classification = "not fulfilled"

[[record]]
molecule = "COc1cc(Nc2nccc(-c3cnn4nc(OC)ccc34)n2)cc(C(F)(F)F)c1"
classification = "fulfilled"


Lookup: For this molecule, is IC50 lower than 50 nM? COc1cc(/C=C2\N=C(N)NC2=O)ccc1O [POLYANDROCARPAMINE A]
Found: not fulfilled

Lookup: Lab note: IC50 threshold 50 nM. Does this molecule come in strictly under it? COc1ccc2sc(C(=O)N(C)Cc3cccc(F)c3)cc2c1
Found: fulfilled

Lookup: Hello, I'm reviewing records and need to know if IC50 of O=C(O)c1nc2ccccc2c2[nH]c3c(Cl)cccc3c12 is below 50 nM. Could you check?
Found: not fulfilled

Lookup: Strictly below 50 nM in IC50? c1csc(CNc2ncnc3ccc(-c4ccc5c(c4)OCO5)cc23)c1
Found: fulfilled

Lookup: Strictly below 50 nM in IC50? CC(C)(C)c1ccc(C(=O)Nc2cn3cc(-c4ccncc4)ccc3n2)cn1
Found: fulfilled

Lookup: Regarding CC(C)n1cnc2c(Nc3cc(N)cc(Cl)c3)nc(NC3CCCCC3N)nc21 (stereo unspecified) , kindly confirm whether its IC50 is beneath 50 nM.
Found: fulfilled

Lookup: Bench note: check whether COc1c(O)ccc2c(=O)c3c(O)cc4c(c3[nH]c12)C=CC(C)(C)O4 shows IC50 below 50 nM
Found: not fulfilled

Lookup: A record lists CC(C)c1cnn2c(NCc3ccc(-c4ccccn4)cc3)nc(N[C@H]3CC[C@H](N)CC3)nc12 . Is its IC50 below 50 nM?
Found: not fulfilled

* * *

- System tested: Dual specificity protein kinase CLK1 (Homo sapiens)
- Measurement description: Inhibition of human CLK1 administered orally
Measured attribute: IC50 (nM)
Number only, in nM; omit the unit.

Lookup: Reported IC50 for CNc1nc(NCc2ncccn2)c2c(-c3ccc4ncccc4c3)c[nH]c2n1 : what is it?
Found: 4.8

* * *

Consider compounds characterized by their pIC50 with Dual specificity protein kinase CLK2 (Homo sapiens, UniProt P49760).
Sequence (P49760 whole entry): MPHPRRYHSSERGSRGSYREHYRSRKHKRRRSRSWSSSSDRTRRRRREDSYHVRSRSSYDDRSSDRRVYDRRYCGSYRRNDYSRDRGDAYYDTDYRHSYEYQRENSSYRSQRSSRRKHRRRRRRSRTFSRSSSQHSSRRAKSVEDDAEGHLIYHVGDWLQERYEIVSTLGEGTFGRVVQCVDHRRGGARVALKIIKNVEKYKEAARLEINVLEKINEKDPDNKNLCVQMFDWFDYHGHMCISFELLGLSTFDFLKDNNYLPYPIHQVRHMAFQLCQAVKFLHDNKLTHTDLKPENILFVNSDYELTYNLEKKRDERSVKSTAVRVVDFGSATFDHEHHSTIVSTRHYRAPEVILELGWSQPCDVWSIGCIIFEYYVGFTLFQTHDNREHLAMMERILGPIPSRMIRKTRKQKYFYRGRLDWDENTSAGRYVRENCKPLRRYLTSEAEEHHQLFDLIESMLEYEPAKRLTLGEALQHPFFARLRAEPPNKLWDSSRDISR
pIC50 is defined as minus the log10 of a concentration measured in mol/L.

[[record]]
compound = "CC(C)(C)c1ccc(C(=O)Nc2cn3cc(-c4ccncc4)ccc3n2)cn1"
experimental_result = 8.62

[[record]]
compound = "CC(C)c1cnn2c(NCc3ccc(-c4ccccn4)cc3)nc(N[C@H]3CC[C@H](N)CC3)nc12"
experimental_result = 6.89

[[record]]
compound = "CC(C)n1cnc2c(Nc3cc(N)cc(Cl)c3)nc(NC3CCCCC3N)nc21 (stereo not given)"
experimental_result = 8.22


Lookup: Could you share what pIC50 was measured for O=C1NCc2c(Cl)cc3c(-c4ccccc4)c[nH]c3c21 , tested on Dual specificity protein kinase CLK2 (Homo sapiens, UniProt P49760)?
Found: 7.48

Lookup: For the record O=[N+]([O-])c1ccccc1-n1cc(COc2cccc3cnc(Nc4cccc(Cl)c4)nc23)nn1 , what value of pIC50 is listed for Dual specificity protein kinase CLK2 (Homo sapiens, UniProt P49760)?
Found: 7.57

Lookup: # get_value(readout= pIC50, system= Dual specificity protein kinase CLK2 (Homo sapiens, UniProt P49760)) for COc1cc(/C=C2\N=C(N)NC2=O)ccc1O
Found: 6.19

Lookup: Missing value: pIC50, Dual specificity protein kinase CLK2 (Homo sapiens, UniProt P49760), entry COc1ccc2sc(C(=O)N(C)Cc3cccc(F)c3)cc2c1 . Fill in?
Found: 7.72

Lookup: Given the entry O=C(Nc1cccnc1)c1c[nH]nc1-c1nc2c(-c3cccc(F)c3)cccc2[nH]1 , what pIC50 was observed with Dual specificity protein kinase CLK2 (Homo sapiens, UniProt P49760)?
Found: 7.96

Lookup: Recorded pIC50 for c1csc(CNc2ncnc3ccc(-c4ccc5c(c4)OCO5)cc23)c1 with Dual specificity protein kinase CLK2 (Homo sapiens, UniProt P49760), please?
Found: 6.17

Lookup: Please provide the recorded pIC50 for N=C1NC(=O)/C(=C/c2ccc3c(c2)CCO3)S1 , tested on Dual specificity protein kinase CLK2 (Homo sapiens, UniProt P49760).
Found: 5.17

Lookup: Query for Dual specificity protein kinase CLK2 (Homo sapiens, UniProt P49760): what pIC50 does the record show for CN1C(=O)/C(=C/c2ccc3c(c2)OCO3)N=C1N ?
Found: 6.14

Lookup: API: value(readout= pIC50, system= Dual specificity protein kinase CLK2 (Homo sapiens, UniProt P49760), query= O=C1NCc2ccc3c(-c4cccc(Cl)c4)c[nH]c3c21 )
Found: 6.29

Lookup: Test system Dual specificity protein kinase CLK2 (Homo sapiens, UniProt P49760); read-out pIC50; what value for COc1ccc(NC(=O)c2n[nH]c3ccc(-c4cncc(CN5CCCCC5)c4)cc23)cc1 ?
Found: 9.09

Lookup: API: value(readout= pIC50, system= Dual specificity protein kinase CLK2 (Homo sapiens, UniProt P49760), query= Cc1nc2ccc3sc(NC(=O)c4ccc5scnc5c4)nc3c2s1 )
Found: 7.17

Lookup: Notebook: pull reported pIC50 for Dual specificity protein kinase CLK2 (Homo sapiens, UniProt P49760), entry CC(C)(CO)c1ccc(C(=O)Nc2cn3cc(-c4cn[nH]c4)ccc3n2)cn1
Found: 8.68

* * *

- System tested: Dual specificity protein kinase CLK2 (Homo sapiens)
- Measurement description: Inhibition of CLK2 (unknown origin)
Measured attribute: IC50 (nM)
Value expressed in nM; do not type the unit.

Lookup: Quick one: IC50 for COc1cccc2c1[nH]c1c3ccncc3cc(C#N)c21 ?
Found: 41

* * *

- System tested: Dual specificity protein kinase CLK3 (Homo sapiens, UniProt P49761)
- Sequence (P49761 whole entry): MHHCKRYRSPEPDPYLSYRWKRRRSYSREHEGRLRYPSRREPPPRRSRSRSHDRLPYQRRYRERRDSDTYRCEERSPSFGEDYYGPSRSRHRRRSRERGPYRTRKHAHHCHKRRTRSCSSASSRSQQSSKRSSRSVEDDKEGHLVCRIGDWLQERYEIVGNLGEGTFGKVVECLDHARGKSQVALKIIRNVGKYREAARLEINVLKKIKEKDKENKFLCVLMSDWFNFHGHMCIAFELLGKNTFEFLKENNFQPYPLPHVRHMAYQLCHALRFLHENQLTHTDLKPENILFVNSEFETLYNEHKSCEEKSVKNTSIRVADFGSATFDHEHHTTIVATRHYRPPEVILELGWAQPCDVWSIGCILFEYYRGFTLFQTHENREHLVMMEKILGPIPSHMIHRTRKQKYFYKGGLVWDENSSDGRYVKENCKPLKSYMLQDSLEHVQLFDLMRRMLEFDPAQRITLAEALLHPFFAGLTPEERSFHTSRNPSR
Each entry below carries its reported pIC50.
Just so you know, pIC50 here is -log10 of the concentration in molar units; reply with that number alone.

[[record]]
molecule = "O=C1NCc2c(Cl)cc3c(-c4ccccc4)c[nH]c3c21"
system_tested = "Dual specificity protein kinase CLK3 (Homo sapiens, UniProt P49761)"
experimental_result = 6.52

[[record]]
molecule = "O=C1NCc2ccc3c(-c4cccc(Cl)c4)c[nH]c3c21"
system_tested = "Dual specificity protein kinase CLK3 (Homo sapiens, UniProt P49761)"
experimental_result = 7.55

[[record]]
molecule = "C[C@@H](c1ccc(F)cc1)n1nnc2cnc3ccc(-c4ccc5ocnc5c4)cc3c21"
system_tested = "Dual specificity protein kinase CLK3 (Homo sapiens, UniProt P49761)"
experimental_result = 8.10

[[record]]
molecule = "Cc1nc2ccc3sc(NC(=O)c4ccc5scnc5c4)nc3c2s1"
system_tested = "Dual specificity protein kinase CLK3 (Homo sapiens, UniProt P49761)"
experimental_result = 6.46

[[record]]
molecule = "c1csc(CNc2ncnc3ccc(-c4ccc5c(c4)OCO5)cc23)c1"
system_tested = "Dual specificity protein kinase CLK3 (Homo sapiens, UniProt P49761)"
experimental_result = 6.33

[[record]]
molecule = "CC(C)c1cnn2c(NCc3ccc(-c4ccccn4)cc3)nc(N[C@H]3CC[C@H](N)CC3)nc12"
system_tested = "Dual specificity protein kinase CLK3 (Homo sapiens, UniProt P49761)"
experimental_result = 8.54


Here's the next entry for you.
Lookup: Query (molecule): CC(C)n1cnc2c(Nc3cc(N)cc(Cl)c3)nc(NC3CCCCC3N)nc21 (stereo not drawn) ; field requested: pIC50
Found: 6.00

* * *

- System tested: Dual specificity protein kinase CLK4 (Homo sapiens)
- Sequence (Q9HAZ1 whole entry): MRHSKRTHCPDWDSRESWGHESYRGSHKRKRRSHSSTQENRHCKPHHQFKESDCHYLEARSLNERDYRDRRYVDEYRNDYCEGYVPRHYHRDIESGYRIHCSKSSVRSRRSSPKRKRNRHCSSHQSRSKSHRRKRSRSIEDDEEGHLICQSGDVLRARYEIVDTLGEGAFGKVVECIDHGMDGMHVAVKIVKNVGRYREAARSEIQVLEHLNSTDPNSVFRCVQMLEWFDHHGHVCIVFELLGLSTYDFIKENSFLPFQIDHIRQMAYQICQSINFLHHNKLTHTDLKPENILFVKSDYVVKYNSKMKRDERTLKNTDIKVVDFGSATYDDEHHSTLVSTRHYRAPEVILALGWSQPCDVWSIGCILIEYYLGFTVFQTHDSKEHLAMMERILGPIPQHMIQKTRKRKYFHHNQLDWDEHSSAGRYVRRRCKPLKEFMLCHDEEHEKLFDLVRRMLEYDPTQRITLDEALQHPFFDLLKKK
Measured attribute: IC50 (nM)
Use nM as the unit, but write only the number.

Lookup: Look at this compound and give its reported IC50. O=C1NC(Nc2ccccc2)=N/C1=C\c1ccc2c(c1)OCO2
Found: 64

* * *

- Measurement description: Antifibrotic activity in TGF-beta1 induced primary human lung fibroblast
- Type: functional, cell-based
Measured attribute: pEC50
Just the number, please; pEC50 means minus log10 of the concentration in mol/L.

Lookup: Please look up its pEC50: O=C(Nc1cccnc1)c1c[nH]nc1-c1nc2c(-c3cccc(F)c3)cccc2[nH]1
Found: 7.74

* * *

- System tested: Dual specificity protein kinase CLK4 (Homo sapiens)
- Measurement description: Inhibition of human CLK4 administered orally
Measured attribute: pIC50
Schema: pIC50 number; meaning minus log10 of the concentration expressed in molar units.

Lookup: What pIC50 value was documented for this compound, CNc1nc(NCc2ncccn2)c2c(-c3ccc4ncccc4c3)c[nH]c2n1 ?
Found: 9.21

* * *

- System tested: Dual specificity protein kinase CLK1 (Homo sapiens, UniProt P49759)
- Measurement description: Inhibition of CLK1 (unknown origin)
Measured attribute: IC50
Quick note: number first, unit second.

Lookup: What value of IC50 has been recorded for this entry: COc1cccc2c1[nH]c1c3ccncc3cc(C#N)c21
Found: 44 nM

* * *

Dual specificity protein kinase CLK1 (Homo sapiens, UniProt P49759): recorded IC50 for assorted compounds

// below: answered compounds
[[record]]
compound = "CC(C)(CO)c1ccc(C(=O)Nc2cn3cc(-c4cn[nH]c4)ccc3n2)cn1"
measured_attribute = "IC50"
experimental_result = "1.1 nM"

[[record]]
compound = "O=C1NCc2c(Cl)cc3c(-c4ccccc4)c[nH]c3c21"
measured_attribute = "IC50"
experimental_result = "380 nM"

[[record]]
compound = "O=[N+]([O-])c1ccccc1-n1cc(COc2cccc3cnc(Nc4cccc(Cl)c4)nc23)nn1"
measured_attribute = "IC50"
experimental_result = "11 nM"


// switching to the query compound
Lookup: # IC50 lookup, item O=C1NCc2ccc3c(-c4cccc(Cl)c4)c[nH]c3c21
Found: 88 nM
